Assignment: determine reported activation for the given compounds.
# TARGET_SYSTEM: CXCR2 (Homo sapiens)
# Construct: expressed in transfected cells
# Sequence (P25025 whole entry): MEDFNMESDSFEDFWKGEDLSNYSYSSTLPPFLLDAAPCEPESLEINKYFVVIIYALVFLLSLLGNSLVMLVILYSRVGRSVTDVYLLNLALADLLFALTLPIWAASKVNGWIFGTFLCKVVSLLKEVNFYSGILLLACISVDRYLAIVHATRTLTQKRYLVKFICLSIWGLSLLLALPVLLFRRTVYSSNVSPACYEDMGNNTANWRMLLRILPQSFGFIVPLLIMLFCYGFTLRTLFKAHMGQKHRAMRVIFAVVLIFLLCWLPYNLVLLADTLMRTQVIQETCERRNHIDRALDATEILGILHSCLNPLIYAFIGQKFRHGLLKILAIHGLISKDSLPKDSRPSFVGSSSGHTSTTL
# PROTOCOL_TEXT: Figure S2a opioid peptide screen on chemokine receptors
# Type: cell-based
# Design: dose or concentration left out as unconfirmed
# ASSAY_CONTEXT: replicate 3, read-out: CXCR2 activity, ctrl+ = 100
Starred links: 1 amine or outer side, 2 acyl side, 3 side chain; linkers in the order of their positions; H or OH if unused. Non-standard residues stand in square brackets, D forms with d. Residues, ends and D or L forms follow the SMILES beside them. X1 = N[C@@H](Cc1ccccc1)CN(CC(=O)[*:2])[*:1]
Numbers only, in %.

Before answering, review these 4 worked examples.
COMPOUND: C[C@H](NC(=O)CNC(=O)[C@@H](NC(=O)[C@H](Cc1ccccc1)NC(=O)CNC(=O)CNC[C@@H](N)Cc1ccccc1)[C@@H](C)O)C(=O)N[C@@H](CCCNC(=N)N)C(=O)N[C@@H](CCCCN)C(=O)N[C@@H](CO)C(=O)N[C@@H](C)C(=O)N[C@@H](CCCNC(=N)N)C(=O)N[C@@H](CCCCN)C(N)=O [FG Nociceptin 1-13] (H-[X1]GFTGARKSARK-NH2)
activation [%]: -0.318
--
COMPOUND: C[C@H](NC(=O)CNC(=O)[C@@H](NC(=O)[C@H](Cc1ccccc1)NC(=O)CNC(=O)CNC(=O)[C@@H](N)Cc1ccccc1)[C@@H](C)O)C(=O)N[C@@H](CCCNC(=N)N)C(=O)N[C@@H](CCCCN)C(=O)N[C@@H](CO)C(=O)N[C@@H](C)C(=O)N[C@@H](CCCNC(=N)N)C(=O)N[C@@H](CCCCN)C(N)=O
activation [%]: -4.53
--
COMPOUND: CC(C)C[C@H](NC(=O)[C@H](Cc1ccccc1)NC(=O)CNC(=O)CNC(=O)[C@@H](N)Cc1ccc(O)cc1)C(=O)N[C@@H](CCCN=C(N)N)C(=O)N[C@@H](CCCN=C(N)N)C(=O)N[C@@H](CCC(N)=O)C(=O)N[C@@H](Cc1ccccc1)C(=O)N[C@@H](CCCCN)C(=O)N[C@H](C(=O)N[C@H](C(=O)N[C@H](C(=O)O)[C@@H](C)O)C(C)C)C(C)C
activation [%]: 5.58
--
COMPOUND: CSCC[C@H](NC(=O)[C@H](Cc1ccccc1)NC(=O)CNC(=O)CNC(=O)[C@@H](N)Cc1ccc(O)cc1)C(=O)N[C@@H](CCCNC(=N)N)C(=O)N[C@@H](CCCNC(=N)N)C(=O)N[C@H](C(N)=O)C(C)C
activation [%]: -0.394

Please examine the following record next.
Record `CC[C@H](C)[C@H](NC(=O)[C@H](CCCNC(=N)N)NC(=O)[C@H](CCCNC(=N)N)NC(=O)[C@H](CC(C)C)NC(=O)[C@H](Cc1ccccc1)NC(=O)CNC(=O)CNC(=O)[C@@H](N)Cc1ccc(O)cc1)C(=O)N[C@@H](CCCNC(=N)N)C(=O)N1CCC[C@H]1C(=O)N[C@@H](CCCCN)C(=O)N[C@@H](CC(C)C)C(=O)N[C@@H](CCCCN)C(=O)N[C@@H](Cc1c[nH]c2ccccc12)C(=O)N[C@@H](CC(=O)O)C(=O)N[C@@H](CC(N)=O)C(=O)N[C@@H](CCC(N)=O)C(=O)O` / CXCR2 (Homo sapiens), activation recorded as 0.355
